molecular target: Trypanothione reductase (Trypanosoma brucei brucei); assay: Induction of intrinsic oxidase activity of Trypanosoma brucei TR at 5 uM
Active and inactive are the calls of the source. The calls are words filed in the database; no cut-off is given here.
Bench note: report the call from true = active, false = inactive

Study these solved cases before continuing.
INSERT INTO results (smiles_code, label_class) VALUES
  ('NCCCCNCc1ccc(OC2=CC(=O)c3cc4ccccc4cc3C2=O)cc1', 'false'),
  ('NCCCNCCCCNCc1ccc(OC2=CC(=O)c3cc4ccccc4cc3C2=O)cc1', 'false'),
  ('NCCCNCCCCNCCCNCc1ccc(OC2=CC(=O)c3ccccc3C2=O)cc1', 'true'),
  ('NCCCCCNCc1ccc(OC2=CC(=O)c3ccccc3C2=O)cc1', 'true');

Which outcome was entered for the compound `NCCCCCNCc1ccc(OC2=CC(=O)c3cc4ccccc4cc3C2=O)cc1` in this test? false
